Listed below: delta logD values for each entry.
- Test Conditions: octanol/water
Parameter: delta logD

Nc1ccn([C@H]2CC[C@@H](CO)O2)c(=O)n1 (stereo in doubt; 232) | 0
Clc1cccc(Cl)c1N=C1NCCN1 | -0.82
CC(=O)CCCCn1c(=O)c2c(ncn2C)n(C)c1=O | 0
CC(C)NCC(O)c1ccc(O)c(O)c1 (configuration not stated) | -0.88
CNC[C@H](O)c1ccc(O)c(O)c1 [EPINEPHRINE] | -0.9
CC(=O)[C@H]1CC[C@H]2[C@@H]3CCC4=CC(=O)CC[C@]4(C)[C@H]3CC[C@]12C | 0
CN1CCN2c3ncccc3Cc3ccccc3C2C1 (configuration not stated) | -0.55

Attribution: ChEMBL document CHEMBL1133765
